- assay system: TAR DNA-binding protein 43 (Homo sapiens) (UniProt Q13148)
- Sequence (Q13148 whole entry): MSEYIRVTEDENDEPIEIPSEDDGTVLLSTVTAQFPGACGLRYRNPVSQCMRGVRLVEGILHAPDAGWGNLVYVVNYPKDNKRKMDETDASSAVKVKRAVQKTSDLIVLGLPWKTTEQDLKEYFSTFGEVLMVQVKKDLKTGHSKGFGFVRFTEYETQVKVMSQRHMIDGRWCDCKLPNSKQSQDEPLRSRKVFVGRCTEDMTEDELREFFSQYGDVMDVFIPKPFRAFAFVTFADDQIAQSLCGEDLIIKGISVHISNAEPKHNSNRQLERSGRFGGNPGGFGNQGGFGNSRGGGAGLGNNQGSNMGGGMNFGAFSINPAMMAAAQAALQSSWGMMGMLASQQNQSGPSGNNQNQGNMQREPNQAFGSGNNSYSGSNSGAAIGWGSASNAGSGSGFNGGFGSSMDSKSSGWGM
- test details: Inhibition of human TDP-43 in human SH-SY5Y cells assessed a splicing changes in normal STMN2 mRNA at 10 uM incubated for 24 hrs by qPCR analysis
- Format: cell-based
Active and inactive are the calls of the source. No cut-off for these calls is given here.
endpoint: inhibition

Some solved entries appear below for comparison.
[
  {
    "molecule": "Cc1ccc(CCNc2ncnc3onc(C)c23)cc1",
    "inhibition": "inactive"
  },
  {
    "molecule": "C=C1C(=O)O[C@H]2C3=C(C)CCC[C@]3(C)C(=O)C[C@@H]12",
    "inhibition": "inactive"
  },
  {
    "molecule": "COc1ccc(S(=O)(=O)NCC(c2ccco2)S(=O)(=O)c2cccs2)cc1F (stereo not given)",
    "inhibition": "inactive"
  },
  {
    "molecule": "COc1ccc(NC(=O)Cn2c(SCc3ccc(F)cc3)nc3cccnc32)cc1OC",
    "inhibition": "inactive"
  }
]

Proceeding to the next molecule to report its inhibition.
Exercise: Give me measured inhibition, please, for this molecule: COc1ccc2[nH]c(=O)c3c(c2c1)OC(C)(C)C=C3
Solution: inactive
